Target: T1, 14‐3‐3σ (human, UniProt P31947 1-248)
T1 construct: 14-3-3 sigma, human, full-length protein from the pProEx HTb-His-14-3-3 construct (used in the FA assays); Written as the protomer; tag removal is told only for the ∆C proteins; source: E. coli BL21(DE3), purified (Ni2+-NTA, dialysis)
T1 sequence (looked up): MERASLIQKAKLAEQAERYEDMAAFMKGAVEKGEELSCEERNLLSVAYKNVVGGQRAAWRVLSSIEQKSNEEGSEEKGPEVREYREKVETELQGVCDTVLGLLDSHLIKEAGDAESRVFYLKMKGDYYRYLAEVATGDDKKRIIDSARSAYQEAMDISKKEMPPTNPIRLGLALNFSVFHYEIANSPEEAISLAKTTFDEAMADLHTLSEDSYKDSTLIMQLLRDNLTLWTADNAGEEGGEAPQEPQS
Assay: fluorescence polarisation; fluorescence anisotropy, direct titration: 14-3-3 protein titrated (1/2 dilution series) against 50 nM FAM-Ahx tracer peptide; 10 mM HEPES, 150 mM NaCl, 0.1% Tween 20, 0.1% BSA, pH 7.4; 384 well plates, triplicates; protein concentration as 14-3-3 monomer; 1:1 fit, biphasic curves fitted as two separate 1:1 events (Kd1, Kd2)
Details: both partners purified
[ ]: non-standard residue; d: D form. pS = N[C@@H](COP(=O)(O)O)C(=O)O; FAM = 5,6-carboxyfluorescein; Ahx = NCCCCCC(=O)O
Consider the following binders and their measured Kd readings.
Response body: numeric value in µM, unit text excluded.

{FAM-Ahx}-SRRRAI[pS]ETEEN-NH2 (hDM2 (human double minute 2 protein), human, residues 160-171; Tracer form used in the FA assays; also called hDM2_(160‐171) ^Ser166; source: synthetic peptide (Fmoc SPPS, HPLC purified)) [FAM‐Ahx‐hDM2_(160‐171) ^pSer166]: 32.7
{FAM-Ahx}-DCRRTI[pS]APVVRPK-NH2 (Tracer form used in the FA assays; source: synthetic peptide (Fmoc SPPS, HPLC purified)) [FAM‐Ahx‐hDMX_(361‐374) ^pSer367]: 3.6

# ---- query binder ----
Request the reported Kd associated with {FAM-Ahx}-SKLTHSL[pS]TSDITAI-NH2 (hDMX (human double minute 4 protein, hDM4), human, residues 335-349; Tracer form used in the FA assays; source: synthetic peptide (Fmoc SPPS, HPLC purified)) [FAM‐Ahx‐hDMX_(335‐349) ^pSer342]
136

Just for reference, paper PMC9541495 is where these values come from.
